Hey, just so you know, these numbers are from patent US20180355059A1.

Target: T1, recombinant human PCSK9-His protein (Immunogen A) (human, UniProt Q8NBP7 31-692, limits assumed, biotinylated in the ELISA assays)
T1 construct: also called hPCSK9-His; His-tagged hPCSK9; not shown: His tag
Assay: ELISA of PCSK9 binding to LDLR ECD; antibody 0.01 nM
observable: OD450 nm
State the value, then name its unit.

Known results for binders:
binder	measValue
152G2F7, fully human anti-PCSK9 antibody (antibody, human IgG1, V domains shown) VH: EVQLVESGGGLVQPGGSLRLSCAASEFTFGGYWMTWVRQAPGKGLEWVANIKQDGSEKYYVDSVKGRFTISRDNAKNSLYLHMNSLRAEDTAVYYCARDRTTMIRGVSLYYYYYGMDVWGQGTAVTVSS VL: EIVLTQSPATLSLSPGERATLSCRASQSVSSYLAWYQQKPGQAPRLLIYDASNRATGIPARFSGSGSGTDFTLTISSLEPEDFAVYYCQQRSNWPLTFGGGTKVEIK	2.27 OD450 nm
139G1C5, fully human anti-PCSK9 antibody (antibody, human IgG1, V domains shown) VH: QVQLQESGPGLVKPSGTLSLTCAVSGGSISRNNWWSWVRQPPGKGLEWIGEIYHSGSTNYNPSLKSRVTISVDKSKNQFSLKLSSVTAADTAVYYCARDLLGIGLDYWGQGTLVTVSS VL: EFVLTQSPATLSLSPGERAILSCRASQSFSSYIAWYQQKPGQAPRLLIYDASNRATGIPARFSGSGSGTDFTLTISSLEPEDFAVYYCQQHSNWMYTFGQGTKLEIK	2.33 OD450 nm
74C10A8, fully human anti-PCSK9 antibody (antibody, human IgG1, V domains shown) VH: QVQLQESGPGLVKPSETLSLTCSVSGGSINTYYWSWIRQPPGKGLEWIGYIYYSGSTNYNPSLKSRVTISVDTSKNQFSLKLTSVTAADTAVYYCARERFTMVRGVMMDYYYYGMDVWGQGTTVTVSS VL: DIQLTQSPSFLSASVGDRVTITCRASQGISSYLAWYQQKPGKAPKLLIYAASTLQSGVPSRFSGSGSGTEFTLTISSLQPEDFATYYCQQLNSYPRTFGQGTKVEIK	2.31 OD450 nm

Then there is this binder:
// query Item 76A1B11, fully human anti-PCSK9 antibody (antibody, human IgG1, V domains shown) VH: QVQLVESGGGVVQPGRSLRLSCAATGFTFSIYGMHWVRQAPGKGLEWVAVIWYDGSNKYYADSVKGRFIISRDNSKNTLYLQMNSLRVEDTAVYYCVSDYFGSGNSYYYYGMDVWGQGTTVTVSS VL: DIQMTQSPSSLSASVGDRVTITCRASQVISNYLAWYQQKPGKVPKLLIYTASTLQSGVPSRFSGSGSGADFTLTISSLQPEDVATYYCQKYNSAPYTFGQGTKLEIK has what recorded OD450 nm?
// result 2.26 OD450 nm
